The following sequences are listed with their measured amyloid nucleation score values.
Assay: amyloid nucleation score (Sup35N fusion, yeast selection) (log enrichment); library NNK2; higher = more nucleation; inactive = no reads after selection;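 note: zero at mode of non-aggregating sequences after 7 days selection at 30°C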
OBSERVABLE: amyloid nucleation score

SEQUENCE RECORD: DLSQYDCVNVFALPGWCNNT
OBSERVABLE: amyloid nucleation score
OBS VALUE: 4.35
--
SEQUENCE RECORD: NIRLRFCFRQMEWHNRFRDC
OBSERVABLE: amyloid nucleation score
OBS VALUE: 3.93
--
SEQUENCE RECORD: VFERDMLNWVSLSLDHCWCS
OBSERVABLE: amyloid nucleation score
OBS VALUE: 1.31
--
SEQUENCE RECORD: FRVVRFVQTGSTFSIARFIK
OBSERVABLE: amyloid nucleation score
OBS VALUE: -0.83
--
SEQUENCE RECORD: RWQCLVEHMRSANLGVRRGP
OBSERVABLE: amyloid nucleation score
OBS VALUE: 0.074
--
SEQUENCE RECORD: VDQCPYRFKFRVSYMMVFYM
OBSERVABLE: amyloid nucleation score
OBS VALUE: 5.67
--
SEQUENCE RECORD: RYAQGRRWSYRLNRCLVGRC
OBSERVABLE: amyloid nucleation score
OBS VALUE: 1.81
--
SEQUENCE RECORD: ELRISPPDNRLWDPQ
OBSERVABLE: amyloid nucleation score
OBS VALUE: 0.183
--
SEQUENCE RECORD: IENRLWIWSLH
OBSERVABLE: amyloid nucleation score
OBS VALUE: 0.673
--
SEQUENCE RECORD: VSLWVIKASRVNPFYSPGGK
OBSERVABLE: amyloid nucleation score
OBS VALUE: 0.301
--
SEQUENCE RECORD: QSLSTKRRSVFFAGHQARGK
OBSERVABLE: amyloid nucleation score
OBS VALUE: -0.42
--
SEQUENCE RECORD: QKLIRWCVKLG
OBSERVABLE: amyloid nucleation score
OBS VALUE: 4.24
--
SEQUENCE RECORD: SFRFMFEVLSVVTYSTRGCA
OBSERVABLE: amyloid nucleation score
OBS VALUE: 2.92
--
SEQUENCE RECORD: MCYHDSVNNERINMGVLLHV
OBSERVABLE: amyloid nucleation score
OBS VALUE: 0.067
--
SEQUENCE RECORD: ICSCTGTYVVRNRMTGTL
OBSERVABLE: amyloid nucleation score
OBS VALUE: -0.786

====

Assay: amyloid nucleation score (Sup35N fusion, yeast selection) (log enrichment); library NNK1; higher = more nucleation; inactive = no reads after selection
The following substances are listed with their measured amyloid nucleation score values.

SUBSTANCE: VSFSCLMSPE
amyloid nucleation score: 0.126
--
SUBSTANCE: NYFTVCLKGVRSDPPSVAKG
amyloid nucleation score: -0.596
--
SUBSTANCE: PNFWVRFKYGYLSSLNSRTV
amyloid nucleation score: -0.375
--
SUBSTANCE: KVCAVTM
amyloid nucleation score: 0.095
--
SUBSTANCE: ADWTSSLNLGEYYMFKFSPE
amyloid nucleation score: 1.02
--
SUBSTANCE: VGVMFG
amyloid nucleation score: -0.06
--
SUBSTANCE: LTSCLLPFDPLSNDNYKGVW
amyloid nucleation score: 1.78
--
SUBSTANCE: YFVSCLFILWPRQSSTRPFE
amyloid nucleation score: 8.16

====

Assay: amyloid nucleation score (Sup35N fusion, yeast selection) (log enrichment); library NNK3; higher = more nucleation; inactive = no reads after selection

SUBSTANCE: LSVELCTCGVRPQATYYPQG
amyloid nucleation score: 1.31
--
SUBSTANCE: ALVCYK
amyloid nucleation score: inactive
--
SUBSTANCE: YFSAIFFDSLYMLYGSNRAV
amyloid nucleation score: 0.356
--
SUBSTANCE: VFGRLFIQMPKLTINQGKFH
amyloid nucleation score: 1.83
--
SUBSTANCE: NSSEGDDY
amyloid nucleation score: inactive
--
SUBSTANCE: SSSAFCGVAIRALIAGGKGY
amyloid nucleation score: inactive
--
SUBSTANCE: VFEHVGWNPHVRYTVNR
amyloid nucleation score: inactive
--
SUBSTANCE: VFYELAYFSNNQTDQWVLD
amyloid nucleation score: inactive
--
SUBSTANCE: EVRPCNMLGLRNIGRGYREN
amyloid nucleation score: inactive

====

The following substances are listed with their measured amyloid nucleation score values.
Test: amyloid nucleation score (Sup35N fusion, yeast selection) (log enrichment); library NNK2; higher = more nucleation; inactive = no reads after selection

SUBSTANCE: EMGVGSYSGRCATSGGSNLQ
amyloid nucleation score: 0.929

SUBSTANCE: RWITSAY
amyloid nucleation score: 0.709

SUBSTANCE: KAWLSSKITKM
amyloid nucleation score: 0.131

SUBSTANCE: FSWASAQLIHSV
amyloid nucleation score: 0.59

SUBSTANCE: IFPVLPGTLYRCTMMC
amyloid nucleation score: -0.612

SUBSTANCE: FYCVNV
amyloid nucleation score: -0.383

SUBSTANCE: WPGLCYCGMPVRMNWLLVTP
amyloid nucleation score: -0.661

SUBSTANCE: RLGSRGSLSFYVHLTCWVEV
amyloid nucleation score: -0.27

SUBSTANCE: DSNTPHASMRYISFKRFFFV
amyloid nucleation score: -0.107

SUBSTANCE: LRYHKTILYTRFSRNHTYAT
amyloid nucleation score: 0.498

SUBSTANCE: ACHRFYLMKSML
amyloid nucleation score: 1.28

SUBSTANCE: SHISDVSKD
amyloid nucleation score: 0.679

SUBSTANCE: HSNPYRKLIQLTMTGITGTV
amyloid nucleation score: 0.033

SUBSTANCE: HGSQRFDFWGGYRYW
amyloid nucleation score: 0.83

SUBSTANCE: PNTSKGGDGYSTWGTSQASS
amyloid nucleation score: 0.03

SUBSTANCE: MMSEVLKDVSCHFIPLGGQV
amyloid nucleation score: -0.694

SUBSTANCE: HGDVIRCRTKIIIAVFGMFM
amyloid nucleation score: 6.21

SUBSTANCE: RLCWWLVWS
amyloid nucleation score: 0.166

SUBSTANCE: KLLFCERGKSGSNQSSLTKT
amyloid nucleation score: -0.523

SUBSTANCE: LTGSFYQHNGMLSTPRHRCL
amyloid nucleation score: -0.547

SUBSTANCE: DGFSYDPFSMVSIVVRFVVG
amyloid nucleation score: 0.99

SUBSTANCE: MYLPMVDVIEVSYSVNLERG
amyloid nucleation score: -0.311

SUBSTANCE: FYLRNSVMCTGPDLGNSTYM
amyloid nucleation score: -1.15

SUBSTANCE: YLCSSRITL
amyloid nucleation score: 1.31

SUBSTANCE: SFGKVYFN
amyloid nucleation score: 0.617

SUBSTANCE: CRVALSVVYHTINEKQWYRV
amyloid nucleation score: -0.988

SUBSTANCE: ISPLLNVYRDYWLYMF
amyloid nucleation score: -1.37

SUBSTANCE: TMWGNI
amyloid nucleation score: -1.59

SUBSTANCE: FVYNQWSYRLRYLTVAIRD
amyloid nucleation score: -0.111

SUBSTANCE: WASFTSACRRLLSPCTPRSG
amyloid nucleation score: 5.22

SUBSTANCE: NSAKKLRRPGATCPGQDGYT
amyloid nucleation score: 0.864

SUBSTANCE: VYYVWRNCLSDCLYYILTYF
amyloid nucleation score: -2.05

SUBSTANCE: FLTLATSTCGPACVW
amyloid nucleation score: 6.99

====

Test: amyloid nucleation score (Sup35N fusion, yeast selection) (log enrichment); library NNK3; higher = more nucleation; inactive = no reads after selection
OBSERVABLE: amyloid nucleation score

SUBSTANCE: LECILADIASCIQPRAYCIS
OBS VALUE: inactive
--
SUBSTANCE: FFRTGFLVGNSSEYYMQY
OBS VALUE: 0.215
--
SUBSTANCE: YVRSYLILS
OBS VALUE: inactive
--
SUBSTANCE: PCLSDPSYIELNKLASVFTG
OBS VALUE: inactive
--
SUBSTANCE: KGVGHSTLTIIFLLSALRFS
OBS VALUE: 1.02
--
SUBSTANCE: GSVTEGFVGLG
OBS VALUE: inactive
--
SUBSTANCE: ALSYLSVLRSMLSRVVLCYL
OBS VALUE: inactive
--
SUBSTANCE: ESFWVML
OBS VALUE: inactive
--
SUBSTANCE: NWDRGLTCHMYRFSNWRWGS
OBS VALUE: inactive
--
SUBSTANCE: RVVLMWDYLIDF
OBS VALUE: 1.08
--
SUBSTANCE: SGMTGCTFRYGSRIQF
OBS VALUE: inactive
--
SUBSTANCE: FSGRMVSRIDIIYRRKSVMS
OBS VALUE: 1.28
--
SUBSTANCE: NALLAFPYQGSMHKCGLGRY
OBS VALUE: inactive
--
SUBSTANCE: STTDRTWNGYDDILYTYLYF
OBS VALUE: inactive
--
SUBSTANCE: FMINSNNRFGISRRTLMSLT
OBS VALUE: inactive
--
SUBSTANCE: RSGLHVEGLRSLHRGKVGPC
OBS VALUE: inactive
--
SUBSTANCE: LRNVYTRVEITQLLTRTSGS
OBS VALUE: inactive
--
SUBSTANCE: FQRVPNWVSIILTGYRGNTC
OBS VALUE: inactive
--
SUBSTANCE: DLVRAMRCHSVGDVGYASSS
OBS VALUE: inactive
--
SUBSTANCE: GLGTAD
OBS VALUE: inactive
--
SUBSTANCE: HVTRLVFMNSRYVAKFVGRA
OBS VALUE: inactive
--
SUBSTANCE: NEIQVKQRYVPPVSVSFVWW
OBS VALUE: 1.59
--
SUBSTANCE: SNGLATLSLSWCNCIKGGSL
OBS VALUE: 2.9
--
SUBSTANCE: LAGSSVVKLYGPVLRFFSSL
OBS VALUE: inactive
--
SUBSTANCE: QWGGSNIVRYRNFIVGLFVR
OBS VALUE: inactive
--
SUBSTANCE: VGLAVVSLLSNRRNEDELCF
OBS VALUE: inactive
--
SUBSTANCE: WSRHSTMGTRPEKQVLWPAG
OBS VALUE: inactive
--
SUBSTANCE: NKVPVGG
OBS VALUE: inactive
--
SUBSTANCE: RRNDRYVCFAMMSRRSGVYL
OBS VALUE: inactive
--
SUBSTANCE: CAQARSRFTYQSAHR
OBS VALUE: inactive
--
SUBSTANCE: QSLLDLMSFLMCV
OBS VALUE: inactive
--
SUBSTANCE: QVGQESDSCLSSIRLCFKYR
OBS VALUE: 0.163
--
SUBSTANCE: CLVYLV
OBS VALUE: inactive
--
SUBSTANCE: TPLSHNVRIMKKLGCDRRD
OBS VALUE: inactive
--
SUBSTANCE: SPPLYSYRGRYMERYHSKWN
OBS VALUE: inactive
--
SUBSTANCE: MFECNWAIFRREFLRLVCTV
OBS VALUE: inactive
--
SUBSTANCE: GASGCLSWHFGLIV
OBS VALUE: inactive
--
SUBSTANCE: LSLCRT
OBS VALUE: 0.001
--
SUBSTANCE: FDYLLYQLCYVYRTYKTVRR
OBS VALUE: inactive
--
SUBSTANCE: FVLVGL
OBS VALUE: inactive
--
SUBSTANCE: ANRKSRVKSEEWAEVNGCWG
OBS VALUE: inactive
--
SUBSTANCE: LETLVKPLELGSYFDFCCWA
OBS VALUE: inactive
--
SUBSTANCE: VTYYKSMYTREHFWTLGNSF
OBS VALUE: 0.69
--
SUBSTANCE: RYCNAWLAGKSIFAPFVGTM
OBS VALUE: inactive
--
SUBSTANCE: CEGCTYMCSCI
OBS VALUE: 0.85
--
SUBSTANCE: RMFNSYNQFLLVAMLPYPLR
OBS VALUE: 2.62
--
SUBSTANCE: LLISGCRSFMMAFSGCL
OBS VALUE: inactive
--
SUBSTANCE: GIWDWVLAIMLRFVTKPS
OBS VALUE: inactive
--
SUBSTANCE: SICGKSSCMCVTNVSPLDSQ
OBS VALUE: 0.304
--
SUBSTANCE: EGNMLASRSSGEPS
OBS VALUE: inactive
--
SUBSTANCE: TSYKKRFCGQYLMLNVNMSW
OBS VALUE: inactive
--
SUBSTANCE: SCRVTPVLR
OBS VALUE: inactive
--
SUBSTANCE: LHLMWMPVTCGEVALCDGQS
OBS VALUE: inactive
--
SUBSTANCE: VLVAHMRGEPGVANEWPLFQ
OBS VALUE: inactive
--
SUBSTANCE: KFCVVSKTLFNFLTFWFEHG
OBS VALUE: inactive
--
SUBSTANCE: DSSPVPKGYNRVRPLVNLAV
OBS VALUE: inactive
--
SUBSTANCE: MYNSTLSWRL
OBS VALUE: inactive
--
SUBSTANCE: TGLLLIRIKGH
OBS VALUE: inactive
--
SUBSTANCE: SKRNPRMRSQLFIGDYFAYP
OBS VALUE: -1.13
--
SUBSTANCE: LSGVLLILSMYLDYWTNIF
OBS VALUE: inactive
--
SUBSTANCE: VRVMNGTRTSCLVR
OBS VALUE: -0.834
--
SUBSTANCE: GSSRQNY
OBS VALUE: inactive
--
SUBSTANCE: FLHQGT
OBS VALUE: inactive
--
SUBSTANCE: ENCAWSRIIRRFNECNTLV
OBS VALUE: inactive
--
SUBSTANCE: YFLLYTVNGGTASTLNYV
OBS VALUE: 2.15
--
SUBSTANCE: MHLLLQRIWVLQAK
OBS VALUE: inactive
--
SUBSTANCE: YTNHFVDLGMVKLVLFTWNM
OBS VALUE: 1.63
--
SUBSTANCE: CRPRLVLSFGQIVY
OBS VALUE: inactive
--
SUBSTANCE: DTNGMMRAMLRYPIIRFLYA
OBS VALUE: -0.402
--
SUBSTANCE: RSTCCWIR
OBS VALUE: inactive
--
SUBSTANCE: HSVIVVCVFSYELFEFHSAV
OBS VALUE: inactive
--
SUBSTANCE: HASMQFWKVDNSFNALMRLG
OBS VALUE: 0.398
--
SUBSTANCE: PYSLPSP
OBS VALUE: inactive
